Entry source: paper PMC5298231

Tested on: erythrocytes infected with 3D7 trophozoites
Format: cell-based, Plasmodium falciparum
Details: sheet Ratio; Exp3, 3hr
Peptide text beside a SMILES is read from it.
Reported Ratio of metabolite abundance, Exp3_3hr values are given for each entry in this list.

COMPOUND: Nc1ncnc2c1ncn2[C@@H]1O[C@H](COP(=O)(O)OP(=O)(O)O)[C@@H](O)[C@H]1O
TARGET OR SYSTEM: erythrocytes infected with 3D7 trophozoites
Ratio of metabolite abundance, Exp3_3hr: 0.6751
//
COMPOUND: CC(C)[C@H](NC(=O)[C@H](C)NC(=O)[C@@H]1CCCN1)C(=O)N[C@@H](Cc1c[nH]cn1)C(=O)O
TARGET OR SYSTEM: erythrocytes infected with 3D7 trophozoites
Ratio of metabolite abundance, Exp3_3hr: 0.3038
//
COMPOUND: Nc1nc2c(ncn2[C@@H]2O[C@H](COP(=O)(O)OP(=O)(O)O[C@H]3O[C@H](CO)[C@@H](O)[C@H](O)[C@@H]3O)[C@@H](O)[C@H]2O)c(=O)[nH]1
TARGET OR SYSTEM: erythrocytes infected with 3D7 trophozoites
Ratio of metabolite abundance, Exp3_3hr: 0.7837
//
COMPOUND: CC(C)[C@H](NC(=O)[C@@H]1CCCN1)C(=O)N[C@@H](CCC(N)=O)C(=O)O [PVQ] (H-Pro-Val-Gln-OH)
TARGET OR SYSTEM: erythrocytes infected with 3D7 trophozoites
Ratio of metabolite abundance, Exp3_3hr: 1.515
